Provide the reported TGI of each item.
Test system: EKVX NSCLC
Assay: NCI tumour cell line growth inhibition, 48 h

(Q) Provide TGI, recorded with EKVX NSCLC, of Cc1nc(Nc2ccc(Cl)c(Cl)c2)sc1C(=O)/C=C/c1ccc2c(c1)OCO2
(A) 87.2 µM

(Q) Quote EKVX NSCLC TGI for entry C=Cc1c(C)c2cc3[nH]c(cc4nc(cc5nc(cc1[nH]2)C(C)=C5CCC(=O)N(CC)CC)C(CCC(=O)N(CC)CC)=C4C)c(C)c3C=C .
(A) > 100 µM

(Q) Retrieve TGI on EKVX NSCLC; query COc1ccc2[nH]c(C(=O)OCc3ccc4cccc(O)c4n3)cc2c1
(A) 2.89 µM

(Q) Please respond with reported TGI (system EKVX NSCLC) for CCc1nn2ncccc2c1-c1ccnc(NC2CC2)n1 .
(A) > 25 µM

(Q) Recall the reported TGI of CC/C(Cc1ccccc1)=C(/c1ccc(O)cc1)c1ccc(OCCN2CCCC2)cc1 when tested on EKVX NSCLC.
(A) 2.89 µM

(Q) Enter TGI (test system EKVX NSCLC) for O=C(NC(=O)c1cn(CCN2CCN(C(=O)NCCCCCCNC(=O)N3CCN(CCn4cc(C(=O)NC(=O)OCc5ccccc5)c(=O)[nH]c4=O)CC3)CC2)c(=O)[nH]c1=O)OCc1ccccc1
(A) > 100 µM

(Q) Please tell me the measured TGI for O=c1c2c3c(sc2nc2n1N=CN(c1ccc(F)cc1)C2)CCCC3 ; system: EKVX NSCLC.
(A) > 100 µM

(Q) Report value: TGI, system: EKVX NSCLC, compound: COc1ccc2c(c1)O/C(=C\c1cccc(OCC(=O)Nc3nc(C)c(C)s3)c1)C2=O
(A) > 54.1 µM

(Q) For EKVX NSCLC, give the measured TGI of the entry N#Cc1c(-c2ccc([N+](=O)[O-])cc2)cc(-c2ccc(Nc3ccnc4cc(Cl)ccc34)cc2)nc1N
(A) 38 µM

(Q) Report its TGI with EKVX NSCLC as the test system: C[n+]1ccccc1/C1=c2\cc/c([nH]2)=C(\c2cccc[n+]2C)C2=N/C(=C(/c3cccc[n+]3C)C3C=CC(N3)/C(c3cccc[n+]3C)=C3/C=CC1=N3)C=C2
(A) > 100 µM

(Q) Give TGI for Cc1ccc(/S(Cc2ccccc2)=N\S(=O)(=O)c2ccc(C)cc2)cc1 (stereo not drawn) tested on EKVX NSCLC.
(A) > 100 µM

(Q) Look up and report TGI, with EKVX NSCLC as system, for COCOc1cc(OC)ccc1C/C(=N/O)C(=O)OC
(A) > 100 µM

(Q) Report value: TGI, system: EKVX NSCLC, compound: NCCOc1ncccc1/C=C1\c2ccccc2-c2ccc([N+](=O)[O-])cc21
(A) 0.474 µM

(Q) Give TGI; test system EKVX NSCLC; compound COc1ccc2c(c1)[n+](=O)c(C(=O)CC(=O)C(=O)Nc1cccc(C)c1C)c(C)n2[O-]
(A) > 100 µM

(Q) Print EKVX NSCLC TGI for COc1ccc2c(c1)CCc1c(CO)c(COC(=O)NC(C)C)n(C)c1-2 .
(A) > 100 µM

(Q) State, for EKVX NSCLC, measured TGI of the compound listed here: N#Cc1c(-c2ccccc2)cc(Nc2ccc(Cl)cc2)n2c1nc1ccccc12
(A) > 46.7 µM

(Q) Provide measured TGI on EKVX NSCLC for C/C(CC(=O)Nc1ccc(NC(=O)C/C(C)=N\NC(N)=O)cc1)=N/NC(N)=O please.
(A) > 100 µM

(Q) Enter TGI (test system EKVX NSCLC) for [N-]=[N+]=Nc1ccc2c(c1)Sc1ccccc1N2CCCCN1CCN(C(=O)CCNC(=O)Cc2ccc(C(=O)c3ccccc3)cc2)CC1
(A) > 100 µM
